Give % viability, viability 2 for every item shown.
- System: l(2)mbn cells
- Assay explanation: cytotoxicity in Drosophila l(2)mbn cells
- Assay type: cell-based
- Particulars: 10 µM, replicate 2, relative to DMSO 1%
Give bare numbers, in %.

Molecule: C=C1CCC2C(C)(CCC=C(C)C)C(O)CCC2(C)C1Cc1c(OC)oc(C)c(C)c1=O (stereo not shown) [Compound 15, viridoxin A hydrolysate]
Measured target: l(2)mbn cells
Display unit: %
Recorded measurement: 5.085
//
Molecule: C=C1CCC2C(C)(CCC=C(C)C)C(O)CCC2(C)C1Cc1c(O)c(C)c(C)oc1=O (stereo not shown) [Compound 9, higginsianin B]
Measured target: l(2)mbn cells
Display unit: %
Recorded measurement: 2.295
//
Molecule: C=C1CCC2C(C)(CCC=C(C)C)C(O)CCC2(C)C1Cc1c(OC)oc(C)c(C)c1=O (stereo not shown) [Compound 11]
Measured target: l(2)mbn cells
Display unit: %
Recorded measurement: 1.588

Turning now to a further molecule:
# % viability, viability 2 lookup, item C=C1CCC2C(C)(CCC=C(C)C)C(O)CCC2(C)C1Cc1c(O)c(C)c(C)oc1=O (stereo not shown) [Compound 4]
20.9927

Reference for the values: paper PMC7156458
